# Test system: hiPSC-CMs
# Assay procedure: Intracellular prodrug, cleavage intermediate metabolite and NTP metabolite concentrations in hiPSC-CMs
# Assay type: in vitro ADME, human
# Test parameters: hiPSC-CMs, 10 μM prodrug alone, 4 Hours
# Method: Approximately 18 h before dosing, iCell hiPSC-CMs were switched to iCell cardiomyocyte maintenance media free of Penicillin/Streptomycin. […] Intracellular prodrug concentrations were measured using a reversed phase HPLC- high resolution mass spectrometry method. […] Intracellular concentrations (pmol/million cells) of prodrug, cleavage intermediate metabolite, and NTP metabolite were quantitated against calibration standards of the same analytes prepared from control iCell hiPSC-CM lysates. […]
Returns one of true or false; true when Intracellular Concentration, Prodrug is >= 100 pmol/million cells.

These recorded examples may help you get a feel for the data.
>>> qualitative_label("CC(C)OC(=O)[C@@H](C)NP(=O)(OC[C@H]1O[C@@H](n2ccc(=O)[nH]c2=O)[C@](C)(F)[C@@H]1O)Oc1ccccc1 (some centres unmarked)")
"true"
>>> qualitative_label("C#C[C@]1(C)[C@@H](O)[C@@H](COP(=O)(N[C@@H](C)C(=O)OC(C)C)Oc2ccccc2)O[C@H]1n1ccc(=O)[nH]c1=O (some centres unmarked)")
"false"
>>> qualitative_label("CC(C)OC(=O)[C@H](C)NP(=O)(OC[C@H]1O[C@@H](n2ccc(=O)[nH]c2=O)[C@](C)(Cl)[C@@H]1O)Oc1ccccc1 (some centres unmarked)")
"true"
>>> qualitative_label("C#C[C@]1(C)[C@@H](O)[C@@H](COP(=O)(N[C@H](C)C(=O)OC(C)C)Oc2ccccc2)O[C@H]1n1ccc(=O)[nH]c1=O (some centres unmarked)")
"false"
>>> qualitative_label("CC(C)OC(=O)[C@H](C)NP(=O)(OC[C@H]1O[C@@H](n2ccc(=O)[nH]c2=O)[C@](C)(F)[C@@H]1O)Oc1ccccc1 (some centres unmarked) [sofosbuvir, reference compound]")
"false"

Determine whether this molecule has Intracellular Concentration, Prodrug no lower than 100 pmol/million cells: CC(C)OC(=O)C(C)NP(=O)(OCC1OC(n2ccc(=O)[nH]c2=O)C(C)(F)C1O)Oc1ccccc1 (centres unmarked) [MNI-6]
false

###

# System: hiPSC-CMs
# Assay procedure: Intracellular prodrug, cleavage intermediate metabolite and NTP metabolite concentrations in hiPSC-CMs
# Type: in vitro ADME, human
# Test parameters: hiPSC-CMs, 10 μM prodrug + 0.3 μM amiodarone, 4 Hours
Entries and their Intracellular Concentration, Prodrug
Use pmol/million cells as the unit, but write only the number.

Examples from the recorded data:
>>> reported_value("CC(C)OC(=O)[C@@H](C)NP(=O)(OC[C@H]1O[C@@H](n2ccc(=O)[nH]c2=O)[C@](C)(F)[C@@H]1O)Oc1ccccc1 (stereo partly drawn)")
61.0
>>> reported_value("CC(C)OC(=O)[C@H](C)NP(=O)(OC[C@H]1O[C@@H](n2ccc(=O)[nH]c2=O)[C@](C)(F)[C@@H]1O)Oc1ccccc1 (stereo partly drawn) [sofosbuvir, reference compound]")
58.4
>>> reported_value("C#C[C@]1(C)[C@@H](O)[C@@H](COP(=O)(N[C@@H](C)C(=O)OC(C)C)Oc2ccccc2)O[C@H]1n1ccc(=O)[nH]c1=O (stereo partly drawn)")
70.5
>>> reported_value("CC(C)OC(=O)[C@H](C)NP(=O)(OC[C@H]1O[C@@H](n2ccc(=O)[nH]c2=O)[C@](C)(Cl)[C@@H]1O)Oc1ccccc1 (stereo partly drawn)")
94.0
>>> reported_value("CC(C)OC(=O)[C@@H](C)NP(=O)(OC[C@H]1O[C@@H](n2ccc(=O)[nH]c2=O)[C@](C)(Cl)[C@@H]1O)Oc1ccccc1 (stereo partly drawn)")
91.9

Proceeding to the next molecule to report its Intracellular Concentration, Prodrug.
For the molecule C#C[C@]1(C)[C@@H](O)[C@@H](COP(=O)(N[C@H](C)C(=O)OC(C)C)Oc2ccccc2)O[C@H]1n1ccc(=O)[nH]c1=O (stereo partly drawn) , what Intracellular Concentration, Prodrug is on record?
78.7
